# target or system: SARS-CoV-2 PLpro (Severe acute respiratory syndrome coronavirus 2, UniProt P0DTD1)
# assay explanation: biochemical
# particulars: Ub-rhodamine substrate
measured metric: IC50
Units required after the number.

Measured IC50, C[C@@H](NC(=O)c1ccccc1CCC(=O)NNC(=O)CCl)c1cccc2ccccc12 : 1.96 µM

====

# System: SARS-CoV-2 isolate USA-WA1/2020
# assay explanation: microbe, parasite or virus in culture
# Type: cell-based
# particulars: Severe acute respiratory syndrome coronavirus 2, Vero C1008; cytopathic effect in SARS-CoV-2-infected Vero E6 cells, 48 h, MOI 0.1
measured metric: pEC50
Numbers only, as −log10 of the molar value.

Measured pEC50, C[C@@H](NC(=O)c1ccccc1CCC(=O)NNC(=O)CCl)c1cccc2ccccc12 : 4.47
